Provide the recorded Enzyme Activity Endpoint Assay (purified): Fab′2 for the entries that follow.
# TARGET: pooled human IgG (human IgG1, 2, 3 and 4)
Entry rule: numbers only, all in ng/µL.

Consider PRT-421 (protein) MTITSVWTKGVTPPTPEDFRYNNEDVLHAPYVANQGWYDITKTFDGKDNLLCGAATAGNMLHWWFDQNKEEIERYLKKHPEKQKIIFNNQELFDVKAAIDTKDSQTNSKLFDYFRDKAFPNLSARQLGVMPDLVLDMFINGYYLNLGKTQSTDVNRPYQDKDKRGGIFDAVFTRGDQTTLLTARHDLKNKGLNEISDLIKQELTEGKALALSHTYANVRINHVINLWGADFDAEGNLIAIYVTDSDANASIGMKKYFVGVNANGKVAISAKKIEGDNIGAQVLGLFTLSTGQDIWQKLS . Its measured Enzyme Activity Endpoint Assay (purified): Fab′2 is 612

Short answer for PRT-434 (protein) MSQTEDSESLQRLRDIEDFQAEKKKQNVVYTKWLDGVDVKDHDFRKIVDGNIAYYATPLLNGRGFYDINKDFNRDSDKCAAAVAANMFHYWLDRNRDNVDRFLRQNPEKHGIIELPDGQLKLSDFLNTYESDDGYRDKSKLFDFISNNFNGPVWTDKLLDNYINGYAYNYKYGRTIEDPTKNTSKINFFKEVFNEKILTNNHSIRNQNEFSVLLSEALYTGKAIGLSYGPAGLRHGLGHIISVWGADLDADGNVVAIYVTDSDDKKLTIGDERVGLKRYKISTDDEGRLRLTAYEETHNTGGQIRGLWTLDTGKQAWADYFDKTEQTGTDQAEQ : Enzyme Activity Endpoint Assay (purified): Fab′2 was 567

Where do these numbers come from? They come from patent US20250027068.
